Consider the following compounds; for each one, report its IC50.
- TGT: Recombinant IDO1 (Homo sapiens, UniProt P14902)
- Construct: His tag (N); made in house; host or cells: E. coli
- Sequence (P14902 whole entry): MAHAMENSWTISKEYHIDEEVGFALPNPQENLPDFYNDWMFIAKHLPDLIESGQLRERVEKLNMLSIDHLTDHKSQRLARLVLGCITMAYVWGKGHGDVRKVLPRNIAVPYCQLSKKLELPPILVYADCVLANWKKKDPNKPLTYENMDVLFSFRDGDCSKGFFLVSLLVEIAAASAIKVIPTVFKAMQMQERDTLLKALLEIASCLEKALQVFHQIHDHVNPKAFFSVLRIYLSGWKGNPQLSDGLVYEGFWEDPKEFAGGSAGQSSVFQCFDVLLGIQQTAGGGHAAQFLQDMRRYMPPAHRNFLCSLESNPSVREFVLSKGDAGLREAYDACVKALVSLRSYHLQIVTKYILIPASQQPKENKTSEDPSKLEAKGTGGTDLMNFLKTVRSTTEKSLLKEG
- ASSAY METHOD TEXT: IDO1 enzymatic assay
- Type: biochemical
- MEASUREMENT CONDITIONS: Table 1, 5-substituted imidazo[1,5-a]pyridines; 50 nM IDO1, 1.3 mM D-tryptophan; read-out: Enzyme IC50 (nM) IDO1
Answers are plain numbers, in nM.

>>> print(df.to_string())
                                   compound  metric  observed
0  OC(CC1CCCCC1)c1c(C(F)(F)F)ccc2cncn12 (stereo not shown) [Example A127]    IC50        44
1  OC(c1c(Cl)ccc2cncn12)C1CCCCC1 (single isomer, unassigned) [Example A116a]    IC50        11
2  OC(c1ccc(F)cc1)c1cccc2cncn12 (stereo not shown)    IC50      2400
3  OC1CCC([C@@H](O)c2c(C3CC3)ccc3cncn23)CC1 (single isomer, unassigned) [Example A142c]    IC50      2000

For each of the items listed, what is its IC50?
1. OC(CC12CC3CC(CC(C3)C1)C2)c1c(C2CC2)ccc2cncn12 (stereo not shown)
2. OC(c1cccc2cncn12)C1CCCC1 (stereo not shown)
3. CC1CCC(C(O)c2cc(Cl)cc3cncn23)CC1 (stereo not shown)
4. OC(c1ccc(Br)c2cncn12)C1CCCCC1 (stereo not shown)
5. OC1CCC(C(O)c2c(C3CC3)ccc3cncn23)CC1 (stereo not shown) [Example A142]

[94, 150, 29, 6500, 130]

Dear colleague, I am looking for the recorded IC50 of the following compound: OC(c1c(C(F)(F)F)ccc2cncn12)C1CCCC1 (stereo not shown)
58
